Assay: Biodistribution in C57BL/6J mice bearing B16–F10 melanoma
Assay type: in vivo
Conditions: C57BL/6J, mouse, intestine, intravenous, 0.5 mg, total radioactivity
measurement.label: tissue uptake at 1 h
Report as: number unit

Give its tissue uptake at 1 h value. Item: CCCC[C@H](NC(=O)CN1CCC(NC(=O)CN2CCN(CC(=O)O)CCN(CC(=O)O)CCN(CC(=O)O)CC2)CC1)C(=O)N[C@H]1CC(=O)NCCCC[C@@H](C(N)=O)N(C)C(=O)[C@H](Cc2c[nH]c3ccccc23)N(C)C(=O)[C@H](CCCNC(=N)N)N(C)C(=O)[C@@H](Cc2ccccc2)NC(=O)[C@H](Cc2cnc[nH]2)N(C)C1=O [[^68Ga]Ga-CCZ01099, metal not drawn] 0.17 %ID/g

----------
Test: Biodistribution in C57BL/6J mice bearing B16–F10 melanoma
Type: in vivo
Conditions: C57BL/6J, mouse, thyroid, intravenous, total radioactivity
measurement.label: tissue uptake at 1 h (%ID/g)
Report the figure in %ID/g without appending any unit label.

Sample CCCC[C@H](NC(=O)CN1CCC(NC(=O)CN2CCN(CC(=O)O)CCN(CC(=O)O)CCN(CC(=O)O)CC2)CC1)C(=O)N[C@H]1CC(=O)NCCCC[C@@H](C(N)=O)N(C)C(=O)[C@H](Cc2c[nH]c3ccccc23)N(C)C(=O)[C@H](CCCNC(=N)N)N(C)C(=O)[C@@H](Cc2ccccc2)NC(=O)[C@H](Cc2cnc[nH]2)N(C)C1=O [[^68Ga]Ga-CCZ01099, metal not drawn] — what was its tissue uptake at 1 h? 0.3
